This collection of values is drawn from ChEMBL document CHEMBL1201861.

System: MLMA;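 also: growth inhibition of MLMA cells (human), determined through a cell viability readout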
test protocol: cells
Format: functional, cell-based, Homo sapiens
condition: Homo sapiens, MLMA
Description: SANGER: Inhibition of human MLMA cell growth in a cell viability assay.
The following molecules are shown together with reported IC50 values.
Dear colleague, please return just the value in µM, with no unit written.

Worked cases, IC50 given:
>>> value_reported("COc1cccc2c1C(=O)c1c(O)c3c(c(O)c1C2=O)C[C@@](O)(C(=O)CO)C[C@@H]3O[C@H]1C[C@H](N)[C@H](O)[C@H](C)O1")
0.122
>>> value_reported("N#Cc1c(O)c2c(-c3ccc(-c4ccccc4O)cc3)csc2[nH]c1=O")
0.234
>>> value_reported("CC(C)c1ccccc1Cc1cc(C(=O)Nc2ccc(S(=O)(=O)c3ccccc3C(C)(C)C)cc2)c(O)c(O)c1O")
0.185

Would you kindly look at the next entry?
Please look at this molecule and report its IC50: `COc1cc(-c2nn([C@H]3CC[C@H](N4CCN(C(C)=O)CC4)CC3)c3ncnc(N)c23)ccc1NC(=O)c1cc2ccccc2n1C` 0.209

----------
The following compounds are shown together with reported IC50 values.
System: NCI-H1618;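 also: growth inhibition of human NCI-H1618 cells, measured by a cell viability assay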
test protocol: cells
Type: functional, cell-based, Homo sapiens
condition: Homo sapiens, NCI-H1618
Description: SANGER: Inhibition of human NCI-H1618 cell growth in a cell viability assay.

>>> value_reported("Oc1ccc2ccccc2c1SSc1c(O)ccc2ccccc12")
"> 32 µM"

Please look at this compound and report its IC50: `Cc1cc([N+](=O)[O-])ccc1NS(=O)(=O)c1cc(Cl)ccc1Cl` > 32 µM

----------
System: NCI-H2141;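 also: growth inhibition of human NCI-H2141 cells, read out with a cell viability assay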
test protocol: cells
Format: functional, cell-based, Homo sapiens
condition: Homo sapiens, NCI-H2141
Description: SANGER: Inhibition of human NCI-H2141 cell growth in a cell viability assay.
metric name: pIC50
Interpret pIC50 as the negative base-10 log of the concentration measured in mol/L.

Worked cases, pIC50 given:
>>> value_reported("CC(=O)O[C@H]1C(=O)[C@@]2(C)[C@H]([C@H](OC(=O)c3ccccc3)[C@]3(O)C[C@H](OC(=O)[C@H](O)[C@@H](NC(=O)c4ccccc4)c4ccccc4)C(C)=C1C3(C)C)[C@]1(OC(C)=O)CO[C@@H]1C[C@@H]2O")
7.09
>>> value_reported("OCCCNc1cc(-c2ccnc(Nc3cccc(Cl)c3)n2)ccn1")
6.99
>>> value_reported("N#Cc1c(O)c2c(-c3ccc(-c4ccccc4O)cc3)csc2[nH]c1=O")
6.20

Would you kindly look at the next entry?
Using NCI-H2141 as the test system, report measured pIC50 of `Nc1ccn([C@@H]2O[C@H](CO)[C@@H](O)C2(F)F)c(=O)n1` . 6.19

----------
Tested on: KLE
test protocol: cells
Format: functional, cell-based, Homo sapiens
condition: Homo sapiens, KLE
Description: SANGER: Inhibition of human KLE cell growth in a cell viability assay.
metric name: IC50

Worked cases, IC50 given:
>>> value_reported("CCN(CC)CCCCNc1ncc2cc(-c3cc(OC)cc(OC)c3)c(NC(=O)NC(C)(C)C)nc2n1")
"> 2 µM"
>>> value_reported("CCN(CC)CCNC(=O)c1c(C)[nH]c(/C=C2\\C(=O)Nc3ccc(F)cc32)c1C")
"> 8 µM"
>>> value_reported("O=C(O)c1ccc(-c2c[nH]c3ncc(-c4ccccc4)cc23)cc1C1CCCC1")
"> 16 µM"

Would you kindly look at the next entry?
Please look at this compound and report its IC50: CC(C)CCN1c2nc(Nc3cc(F)c(O)c(F)c3)ncc2N(C)C(=O)C1C (centres undefined) > 5 µM

----------
System: CHP-134
test protocol: SANGER: Inhibition of human CHP-134 cell growth in a cell viability assay.
Assay type: functional, cell-based
metric name: pIC50
Interpret pIC50 as the negative base-10 log of the concentration measured in mol/L.

Please look at this compound and report its pIC50: CC(C)CCN1c2nc(Nc3cc(F)c(O)c(F)c3)ncc2N(C)C(=O)C1C (configuration not stated) 5.46

----------
Test system: CAL-62
test protocol: cells
Assay type: functional, cell-based, Homo sapiens
condition: cal-62
Description: SANGER: Inhibition of human CAL-62 cell growth in a cell viability assay.
metric name: IC50 (µM)
Dear colleague, please return just the value in µM, with no unit written.

Please look at this sequence and report its IC50: `CISPLATIN` 301

----------
System: OS-RC-2
test protocol: cells
Type: functional, cell-based, Homo sapiens
condition: Homo sapiens, OS-RC-2
Description: SANGER: Inhibition of human OS-RC-2 cell growth in a cell viability assay.
Where a name gives a salt, the structure may show the parent alone.
metric name: IC50 (µM)
Dear colleague, please return just the value in µM, with no unit written.

Please look at this compound and report its IC50: COC1=CC(c2cc3ccccc3[nH]2)=N/C1=C\c1[nH]c(C)cc1C [OBATOCLAX MESYLATE] 0.431

Please look at this compound and report its IC50: CN(C)C(=N)NC(=N)N [METFORMIN] 13000

Please look at this compound and report its IC50: Cn1cnc2c(F)c(Nc3ccc(Br)cc3Cl)c(C(=O)NOCCO)cc21 [SELUMETINIB] 2.4

----------
Tested on: H9
test protocol: cells
Assay type: functional, cell-based, Homo sapiens
condition: Homo sapiens, H9
Description: SANGER: Inhibition of human H9 cell growth in a cell viability assay.
pIC50: −log10 of the molar value.
The following molecules are shown together with reported pIC50 values.

Worked cases, pIC50 given:
>>> value_reported("CC(C)CCN1c2nc(Nc3cc(F)c(O)c(F)c3)ncc2N(C)C(=O)C1C (stereo not drawn)")
7.22
>>> value_reported("CC1(C)CNc2cc(NC(=O)c3cccnc3NCc3ccncc3)ccc21 [MOTESANIB]")
"< 5.70"

Would you kindly look at the next entry?
Please look at this molecule and report its pIC50: Nc1cccc2c1CN(C1CCC(=O)NC1=O)C2=O (stereo not drawn) [LENALIDOMIDE] < 5.30

----------
System: CAL-33
test protocol: cells
Format: functional, cell-based, Homo sapiens
condition: cal-33
Description: SANGER: Inhibition of human CAL-33 cell growth in a cell viability assay.
metric name: IC50
Please format your answer as a value with the unit trailing.

>>> value_reported("CISPLATIN")
"41.3 µM"

Please look at this sequence and report its IC50: `BLEOMYCIN` 2.15 µM

----------
Tested on: NCI-H2029;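 also: Read-out is a viability assay on the cultured cells, and IC50 is the concentration that suppresses cell growth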
test protocol: cells
Format: functional, cell-based, Homo sapiens
condition: nci-h2029
Description: SANGER: Inhibition of human NCI-H2029 cell growth in a cell viability assay.
metric name: IC50 (µM)
Dear colleague, please return just the value in µM, with no unit written.

Please look at this sequence and report its IC50: `CISPLATIN` 961

----------
Test system: 8505C
test protocol: cells
Type: functional, cell-based, Homo sapiens
condition: Homo sapiens, 8505C
Description: SANGER: Inhibition of human 8505C cell growth in a cell viability assay.
metric name: IC50 (nM)
Dear colleague, please return just the value in nM, with no unit written.

>>> value_reported("Nc1ccn([C@@H]2O[C@H](CO)[C@@H](O)C2(F)F)c(=O)n1 [GEMCITABINE]")
1.06

Would you kindly look at the next entry?
Please look at this compound and report its IC50: `CC(C)c1ccccc1Cc1cc(C(=O)Nc2ccc(S(=O)(=O)c3ccccc3C(C)(C)C)cc2)c(O)c(O)c1O` 221

----------
System: L-428
test protocol: cells
Format: functional, cell-based, Homo sapiens
condition: l-428
Description: SANGER: Inhibition of human L-428 cell growth in a cell viability assay.
metric name: pIC50
Interpret pIC50 as the negative base-10 log of the concentration measured in mol/L.

Please look at this sequence and report its pIC50: `BLEOMYCIN` 4.28

----------
The following sequences are shown together with reported IC50 values.
Test system: ONS-76
test protocol: cells
Assay type: functional, cell-based, Homo sapiens
condition: ons-76
Description: SANGER: Inhibition of human ONS-76 cell growth in a cell viability assay.
Dear colleague, please return just the value in nM, with no unit written.

>>> value_reported("CISPLATIN")
3950

Would you kindly look at the next entry?
Please look at this sequence and report its IC50: `BLEOMYCIN` 854

----------
Test system: KP-4;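 also: human KP-4 cells, with growth inhibition read out through a cell viability assay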
test protocol: cells
Assay type: functional, cell-based, Homo sapiens
condition: kp-4
Description: SANGER: Inhibition of human KP-4 cell growth in a cell viability assay.
metric name: IC50 (µM)
Dear colleague, please return just the value in µM, with no unit written.

Please look at this sequence and report its IC50: `CISPLATIN` 11.7

----------
Tested on: TUR
test protocol: cells
Assay type: functional, cell-based, Homo sapiens
condition: Homo sapiens, TUR
Description: SANGER: Inhibition of human TUR cell growth in a cell viability assay.
Counter-ions that a name gives are not always drawn.
The following molecules are shown together with reported IC50 values.

>>> value_reported("Cc1ccc(-c2c(C(=O)CCl)n(CCCO)c3ncnc(N)c23)cc1")
"> 4000 nM"
>>> value_reported("N#Cc1c(O)c2c(-c3ccc(-c4ccccc4O)cc3)csc2[nH]c1=O")
"345 nM"
>>> value_reported("N[C@@H](CSC(c1ccccc1)(c1ccccc1)c1ccccc1)C(=O)O")
"> 5120 nM"

Please look at this molecule and report its IC50: COC1=CC(c2cc3ccccc3[nH]2)=N/C1=C\c1[nH]c(C)cc1C [OBATOCLAX MESYLATE] 1160 nM

Please look at this molecule and report its IC50: `Nc1ccn([C@@H]2O[C@H](CO)[C@@H](O)C2(F)F)c(=O)n1` 32 nM

Please look at this molecule and report its IC50: `CCC/C=C/C=C/C(=O)O[C@H]1/C(=C/C(=O)OC)C[C@H]2C[C@H]([C@@H](C)O)OC(=O)C[C@H](O)C[C@@H]3C[C@H](OC(C)=O)C(C)(C)[C@](O)(C[C@@H]4C/C(=C/C(=O)OC)C[C@H](/C=C/C(C)(C)[C@]1(O)O2)O4)O3` > 8 nM

----------
Test system: EOL1;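 also: growth inhibition of EoL-1 cells, read out by a cell viability assay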
test protocol: cells
Assay type: functional, cell-based, Homo sapiens
condition: Homo sapiens, EOL1
Description: SANGER: Inhibition of human EoL-1-cell cell growth in a cell viability assay.
Where a name gives a salt, the structure may show the parent alone.
The following molecules are shown together with reported log10 of IC50 values.
For clarity, the numbers are log10 values of IC50 expressed in µM.

Worked cases, log10 of IC50 given:
>>> value_reported("COC1=CC(c2cc3ccccc3[nH]2)=N/C1=C\\c1[nH]c(C)cc1C [OBATOCLAX MESYLATE]")
-0.94
>>> value_reported("N#Cc1c(O)c2c(-c3ccc(-c4ccccc4O)cc3)csc2[nH]c1=O")
-1.02
>>> value_reported("COc1cc2c(Nc3ccc(NC(=O)c4ccccc4)cc3)ncnc2cc1OCCCN1CCOCC1")
-0.73
>>> value_reported("Cc1cc([N+](=O)[O-])ccc1NS(=O)(=O)c1cc(Cl)ccc1Cl")
0.69
>>> value_reported("CCN(CC)CCCCNc1ncc2cc(-c3cc(OC)cc(OC)c3)c(NC(=O)NC(C)(C)C)nc2n1")
-0.48

Would you kindly look at the next entry?
Please look at this molecule and report its log10 of IC50: `CN(C)C(=N)NC(=N)N` 3.26
